Target System: AKT1 (as used in SPR), P31749
Sequence (P31749 whole entry): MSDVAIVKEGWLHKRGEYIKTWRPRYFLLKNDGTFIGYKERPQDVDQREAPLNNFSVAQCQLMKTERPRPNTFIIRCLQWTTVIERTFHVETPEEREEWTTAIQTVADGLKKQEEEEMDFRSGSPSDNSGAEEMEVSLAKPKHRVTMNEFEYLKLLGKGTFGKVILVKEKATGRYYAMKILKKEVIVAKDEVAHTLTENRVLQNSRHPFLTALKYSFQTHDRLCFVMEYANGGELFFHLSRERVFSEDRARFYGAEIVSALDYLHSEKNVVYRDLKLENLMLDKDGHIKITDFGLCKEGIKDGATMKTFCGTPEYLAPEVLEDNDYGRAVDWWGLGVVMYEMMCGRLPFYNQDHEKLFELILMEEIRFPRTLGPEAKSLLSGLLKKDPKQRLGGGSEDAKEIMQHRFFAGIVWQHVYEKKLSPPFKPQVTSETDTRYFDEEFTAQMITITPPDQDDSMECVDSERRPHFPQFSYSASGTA
Method: SPR
Readout: pKd
Give bare numbers, as −log10 of the molar value.

[in] Need pKd, item SYN23-26 (designed binder, not fully specified; C-terminal glycine joined to one of the two amines (alpha or epsilon) of a lysine linker; chain 1 pos 20 and chain 2 pos 20: the C-terminal Gly of each 20-mer is joined to the alpha or the epsilon amine of one branching lysine (about 1 nm spacing). The lysine is followed by a C-terminal cysteine whose thiol is biotinylated for the array. The Lys-Cys core is left out of the …) peptide 1: FRGWAHIFFGPHVIYRGGSG peptide 2: AHKVVPQRQIRHAYNRYGSG
[out] 9.00
